Assay: UV spectra of compounds in solution (filtering parameters)
Type: physicochemical
Details: DMSO
Each entry below lists one item and its recorded A (absorbance) value.

- compound: "c1csc(-c2nc3ccccc3s2)c1 [Compound 10a, 2-(Thiophen-2-Yl)benzothiazole]"
  A (absorbance): 0.880
- compound: "O=C(O)c1ccc2nc(-c3ccco3)sc2c1"
  A (absorbance): 1.36
- compound: "c1c[nH]c(-c2nc3ccccc3s2)c1"
  A (absorbance): 2.360
- compound: "NS(=O)(=O)c1ccc2nc(-c3cccs3)sc2c1 [Compound 10c]"
  A (absorbance): 0.890
- compound: "c1coc(-c2nc3ccccc3s2)c1"
  A (absorbance): 1.620
- compound: "O=C(O)c1ccc2nc(-c3ccc[nH]3)sc2c1"
  A (absorbance): 0.370
- compound: "NS(=O)(=O)c1ccc2nc(-c3ccco3)sc2c1"
  A (absorbance): 0.59
- compound: "NS(=O)(=O)c1ccc2nc(-c3ccc[nH]3)sc2c1"
  A (absorbance): 0.700
- compound: "O=C(O)c1ccc2nc(-c3cccs3)sc2c1 [Compound 10b]"
  A (absorbance): 1.160
- compound: "O=S(=O)(O)c1ccc2[nH]c(-c3ccccc3)nc2c1 [PBSA, reference compound]"
  A (absorbance): 1.130

----------
Assay: UV spectra of compounds in solution (filtering parameters)
Format: physicochemical
Conditions: MeOH
I'd appreciate it if you marked entries satisfied when A (absorbance) is lower than 1 and not satisfied when it is not.

- compound: "c1c[nH]c(-c2nc3ccccc3s2)c1"
  label: "not satisfied"
- compound: "O=S(=O)(O)c1ccc2[nH]c(-c3ccccc3)nc2c1 [PBSA, reference compound]"
  label: "not satisfied"
- compound: "O=C(O)c1ccc2nc(-c3cccs3)sc2c1 [Compound 10b]"
  label: "not satisfied"
- compound: "c1csc(-c2nc3ccccc3s2)c1 [Compound 10a, 2-(Thiophen-2-Yl)benzothiazole]"
  label: "satisfied"
- compound: "O=C(O)c1ccc2nc(-c3ccc[nH]3)sc2c1"
  label: "satisfied"
- compound: "NS(=O)(=O)c1ccc2nc(-c3ccco3)sc2c1"
  label: "satisfied"
